target: Cannabinoid receptor 2 (Rattus norvegicus, UniProt Q9QZN9); assay: Agonist activity at rat recombinant CB2 receptor expressed in CHO-K1 cells assessed as inhibition of forskolin-stimulated intracellular cAMP level
pEC50: −log10 of the molar value.
assay.metric: pEC50

[
  {
    "smiles.data": "CC(C)(C)c1cc(NC(=O)CCc2nc(-c3ccc(F)cc3Cl)no2)no1",
    "assay.metric": "pEC50",
    "reported.measurement": 9.40
  },
  {
    "smiles.data": "Fc1ccc(-c2noc(CCCOc3cnc4ccc(Cl)cc4c3)n2)c(Cl)c1",
    "assay.metric": "pEC50",
    "reported.measurement": 8.29
  },
  {
    "smiles.data": "CCn1c2ccccc2c2cc(NC(=O)CCc3nc(C4CCOCC4)no3)ccc21",
    "assay.metric": "pEC50",
    "reported.measurement": 9.42
  },
  {
    "smiles.data": "CCn1c2ccccc2c2cc(NC(=O)CCc3nc(-c4ccncc4C#N)no3)ccc21",
    "assay.metric": "pEC50",
    "reported.measurement": 8.89
  },
  {
    "smiles.data": "O=C(CCc1nc(-c2ccc(F)cc2Cl)no1)Nc1ccc(C(F)(F)F)c(Cl)c1",
    "assay.metric": "pEC50",
    "reported.measurement": 7.10
  },
  {
    "smiles.data": "CCn1c2ccccc2c2cc(NC(=O)CCc3nc(-c4ccccc4F)no3)ccc21",
    "assay.metric": "pEC50",
    "reported.measurement": 7.48
  },
  {
    "smiles.data": "CCn1c2ccccc2c2cc(NC(=O)CCc3nc(-c4ccc(F)cc4)no3)ccc21",
    "assay.metric": "pEC50",
    "reported.measurement": 8.49
  },
  {
    "smiles.data": "CC(C)(C)c1ncc(NC(=O)CCc2nc(-c3ccc(F)cc3Cl)no2)cn1",
    "assay.metric": "pEC50",
    "reported.measurement": 8.89
  },
  {
    "smiles.data": "N#Cc1cc(NC(=O)CCc2nc(-c3ccc(F)cc3Cl)no2)cnc1OCC(F)(F)F",
    "assay.metric": "pEC50",
    "reported.measurement": 8.51
  },
  {
    "smiles.data": "O=C(CCc1nc(-c2ccc(F)cc2Cl)no1)Nc1cnc2ccc(Cl)cc2c1",
    "assay.metric": "pEC50",
    "reported.measurement": 7.96
  }
]

---

Target: UniProt:Q9QZN9
Sequence (whole entry): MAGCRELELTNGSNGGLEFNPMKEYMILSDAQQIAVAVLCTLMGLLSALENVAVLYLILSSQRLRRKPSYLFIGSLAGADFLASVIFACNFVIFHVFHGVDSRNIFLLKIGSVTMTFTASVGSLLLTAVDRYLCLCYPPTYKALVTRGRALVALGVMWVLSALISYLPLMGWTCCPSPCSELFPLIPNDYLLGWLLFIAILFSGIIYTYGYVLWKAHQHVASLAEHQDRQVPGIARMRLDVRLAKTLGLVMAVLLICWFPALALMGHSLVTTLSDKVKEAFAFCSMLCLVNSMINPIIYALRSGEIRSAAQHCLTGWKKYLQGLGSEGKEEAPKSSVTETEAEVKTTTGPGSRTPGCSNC
Assay: Agonist activity at rat recombinant CB2 receptor expressed in CHO-K1 cells assessed as inhibition of forskolin-stimulated intracellular cAMP level relative to CP-55940
Assay type: functional, cell-based
Entries annotated with measured Emax
assay.metric: Emax (%)

[
  {
    "smiles.data": "CCn1c2ccccc2c2cc(NC(=O)CCc3nc(C4CCOCC4)no3)ccc21",
    "value.unit": "%",
    "reported.measurement": 100
  },
  {
    "smiles.data": "CC(C)(C)c1ncc(NC(=O)CCc2nc(-c3ccc(F)cc3Cl)no2)cn1",
    "value.unit": "%",
    "reported.measurement": 99
  },
  {
    "smiles.data": "O=C(CCc1nc(-c2ccc(F)cc2Cl)no1)Nc1nnc(N2CCCCC2)s1",
    "value.unit": "%",
    "reported.measurement": 98
  },
  {
    "smiles.data": "Fc1ccc(-c2noc(CCCOc3cnc4ccc(Cl)cc4c3)n2)c(Cl)c1",
    "value.unit": "%",
    "reported.measurement": 99
  },
  {
    "smiles.data": "O=C(CCc1nc(-c2ccc(F)cc2Cl)no1)Nc1cnc2ncc(Cl)cc2c1",
    "value.unit": "%",
    "reported.measurement": 100
  },
  {
    "smiles.data": "N#Cc1cc(NC(=O)CCc2nc(-c3ccc(F)cc3Cl)no2)cnc1OCC(F)(F)F",
    "value.unit": "%",
    "reported.measurement": 100
  },
  {
    "smiles.data": "Fc1ccc(-c2noc(CCCNc3nc4ccc(Cl)cc4s3)n2)c(Cl)c1",
    "value.unit": "%",
    "reported.measurement": 66
  },
  {
    "smiles.data": "CCn1c2ccccc2c2cc(NC(=O)CCc3nc(-c4ccc(F)cc4)no3)ccc21",
    "value.unit": "%",
    "reported.measurement": 90
  },
  {
    "smiles.data": "CCn1c2ccccc2c2cc(NC(=O)CCc3nc(-c4ccncc4C#N)no3)ccc21",
    "value.unit": "%",
    "reported.measurement": 110
  },
  {
    "smiles.data": "O=C(CCc1nc(-c2ccc(F)cc2Cl)no1)Nc1nc2ccc(OC(F)(F)F)cc2s1",
    "value.unit": "%",
    "reported.measurement": 98
  },
  {
    "smiles.data": "CC(C)(C)c1ncc(OCCCc2nc(-c3ccc(F)cc3Cl)no2)cn1",
    "value.unit": "%",
    "reported.measurement": 100
  },
  {
    "smiles.data": "N#Cc1cc(NCCCc2nc(-c3ccc(F)cc3Cl)no2)cnc1OCC(F)(F)F",
    "value.unit": "%",
    "reported.measurement": 85
  },
  {
    "smiles.data": "CCn1c2ccccc2c2cc(NC(=O)CCn3nnc(-c4ccccc4F)n3)ccc21",
    "value.unit": "%",
    "reported.measurement": 90
  },
  {
    "smiles.data": "Fc1ccc(-c2noc(CCCNc3cnc4ccc(Cl)cc4c3)n2)c(Cl)c1",
    "value.unit": "%",
    "reported.measurement": 90
  },
  {
    "smiles.data": "CC(C)(C)c1cc(NCCCc2nc(-c3ccc(F)cc3Cl)no2)no1",
    "value.unit": "%",
    "reported.measurement": 82
  },
  {
    "smiles.data": "CCn1c2ccccc2c2cc(NC(=O)CCc3nc(-c4ccc(F)cc4C)no3)ccc21",
    "value.unit": "%",
    "reported.measurement": 110
  },
  {
    "smiles.data": "O=C(CCc1nc(-c2ccc(F)cc2Cl)no1)Nc1cnc2ccc(Cl)cc2c1",
    "value.unit": "%",
    "reported.measurement": 97
  },
  {
    "smiles.data": "O=C(CCc1nc(-c2ccc(F)cc2Cl)no1)Nc1ccc(C(F)(F)F)cc1",
    "value.unit": "%",
    "reported.measurement": 90
  },
  {
    "smiles.data": "CCn1c2ccccc2c2cc(NC(=O)CCc3nc(-c4ccc(F)cc4C#N)no3)ccc21",
    "value.unit": "%",
    "reported.measurement": 130
  },
  {
    "smiles.data": "O=C(CCc1nc(-c2ccc(F)cc2Cl)no1)Nc1ccc(C(F)(F)F)nc1",
    "value.unit": "%",
    "reported.measurement": 95
  },
  {
    "smiles.data": "CC(C)(C)c1cc(NC(=O)CCc2nc(-c3ccc(F)cc3Cl)no2)no1",
    "value.unit": "%",
    "reported.measurement": 100
  }
]
